# experimentalProtocol: Clearance in Sprague-Dawley rat at 2 mg/kg, iv
# Format: ADME, organism-based
# Set-up: dose 2 mg/kg, route intravenous
# appliedConditions: Sprague-Dawley, in vivo
Would you kindly list clearance for each of these molecules?
// note: answer is a bare numeric in mL/min/kg

Query: clearance lookup needed for COc1ccc2c(O[C@@H]3C[C@H]4C(=O)N[C@]5(C(=O)NS(=O)(=O)C6CC6)C[C@H]5/C=C\CCCCN(C)C(=O)N4C3)nc(-c3ccc(F)cc3)nc2c1C , thanks.
Reply: 9.33

Query: Input COc1ccc2c(O[C@@H]3C[C@H]4C(=O)N[C@]5(C(=O)NS(=O)(=O)C6CC6)C[C@H]5/C=C\CCCCN(C)C(=O)[C@@H]4C3)nc(-c3ccccc3)nc2c1C
Reply: 16.7

Query: Let us now turn to COc1ccc2c(O[C@@H]3C[C@H]4C(=O)N[C@]5(C(=O)NS(=O)(=O)C6CC6)C[C@H]5/C=C\CCCCCNC(=O)N4C3)nc(-c3ccc(F)cc3)nc2c1C
Reply: 26.7

---

# experimentalProtocol: Ratio of drug level in liver to plasma in Sprague-Dawley rat at 10 mg/kg, po after 6 hrs
# Type: ADME, organism-based
# Parameters: dose 10 mg/kg, route oral
measuredMetric: Kp at 6 h

Query: Tell me the measured Kp at 6 h of COc1ccc2c(O[C@@H]3C[C@H]4C(=O)N[C@]5(C(=O)NS(=O)(=O)C6CC6)C[C@H]5/C=C\CCCCN(C)C(=O)N4C3)nc(-c3ccccc3)nc2c1C , please.
Reply: 32

Query: Lookup COc1ccc2c(O[C@@H]3C[C@H]4C(=O)N[C@]5(C(=O)NS(=O)(=O)C6CC6)C[C@H]5/C=C\CCCCN(C)C(=O)N4C3)nc(-c3ccc(F)cc3)nc2c1C
Reply: 42

Query: How about COc1ccc2c(O[C@@H]3C[C@H]4C(=O)N[C@]5(C(=O)NS(=O)(=O)C6CC6)C[C@H]5/C=C\CCCCCNC(=O)N4C3)nc(-c3ccc(F)cc3)nc2c1C ?
Reply: 100

---

# experimentalProtocol: Inhibition of HCV 1a NS3/4A protease
# Parameters: species or system Hepatitis C virus subtype 1a
Consider the following molecules; for each one, report its log10(Ki).
Reminder: these figures are log10 of reported Ki, in nM before transformation.

Query: Consider the molecule shown here: COc1ccc2c(O[C@@H]3C[C@H]4C(=O)N[C@]5(C(=O)NS(=O)(=O)C6CC6)C[C@H]5/C=C\CCCCN(C)C(=O)N4C3)nc(-c3cccc(C)n3)nc2c1C What is its recorded log10(Ki)?
Reply: -0.05

Query: Now the molecule COc1ccc2c(O[C@@H]3C[C@H]4C(=O)N[C@]5(C(=O)NS(=O)(=O)C6CC6)C[C@H]5/C=C\CCCCN(C)C(=O)[C@@H]4C3)nc(-c3nc(C(C)C)cs3)nc2c1
Reply: 0.08

Query: Try this molecule next: CN1CCCC/C=C\[C@@H]2C[C@@]2(C(=O)NS(=O)(=O)C2CC2)NC(=O)[C@@H]2C[C@@H](Oc3nc(-c4ccccc4)nc4ccccc34)C[C@H]2C1=O
Reply: -0.40

Query: Then this molecule: COc1ccc2c(O[C@@H]3C[C@H]4C(=O)N[C@]5(C(=O)NS(=O)(=O)C6CC6)C[C@H]5/C=C\CCCCN(C)C(=O)N4C3)nc(-c3ccncc3)nc2c1C
Reply: -0.70

Query: Now try CN1CCN(c2nc(O[C@@H]3C[C@H]4C(=O)N[C@]5(C(=O)NS(=O)(=O)C6CC6)C[C@H]5/C=C\CCCCN(C)C(=O)[C@@H]4C3)c3ccccc3n2)CC1 .
Reply: 0.08

Query: // query: CC(C)c1csc(-c2nc(O[C@@H]3C[C@H]4C(=O)N[C@]5(C(=O)NS(=O)(=O)C6CC6)C[C@H]5/C=C\CCCCN(C)C(=O)[C@@H]4C3)c3ccccc3n2)n1
Reply: -0.10

Query: Next record, please: COc1ccc2c(O[C@@H]3C[C@H]4C(=O)N[C@]5(C(=O)NS(=O)(=O)C6CC6)C[C@H]5/C=C\CCCCN(C)C(=O)[C@@H]4C3)nc(-c3ccc(F)cc3)nc2c1
Reply: -0.70

Query: Moving on to COc1ccc2c(O[C@@H]3C[C@H]4C(=O)N[C@]5(C(=O)NS(=O)(=O)C6CC6)C[C@H]5/C=C\CCCCCNC(=O)N4C3)nc(-c3ccc(F)cc3)nc2c1C
Reply: -0.70

Query: Now consider COc1ccc2c(O[C@@H]3C[C@H]4C(=O)N[C@]5(C(=O)NS(=O)(=O)C6CC6)C[C@H]5/C=C\CCCCCNC(=O)N4C3)nc(-c3ccccc3)nc2c1C .
Reply: -0.52

Query: Next entry: CN1CCCC/C=C\[C@@H]2C[C@@]2(C(=O)NS(=O)(=O)C2CC2)NC(=O)[C@@H]2C[C@@H](Oc3nc(N4CCOCC4)nc4ccccc34)C[C@H]2C1=O
Reply: 0.79
